B1: ZNF277 (parent)
chain: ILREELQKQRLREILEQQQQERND

Variants of: B1
test name: protein stability index of a GFP-peptide fusion (GPS, HEK-293T) (PSI 1-6); higher = more stable;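 also: lentivirally expressed fusions sorted by FACS into six bins by GFP to DsRed ratio, PSI derived from sequencing read proportions per bin multiplied by bin number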
particulars: c terminus: a fixed tail appended
Please go through the items and note down their protein stability index.
Give a plain numeric answer without units written out.

Problem: # protein stability index lookup, item "R10W"
Result: 3.23

Problem: # protein stability index lookup, item "R22C"
Result: 4.48

Problem: # protein stability index lookup, item "Q19E"
Result: 3.98

Problem: # protein stability index lookup, item "R12M"
Result: 4.58

Problem: # protein stability index lookup, item "E4R"
Result: 3.61

Problem: # protein stability index lookup, item "Q9N"
Result: 3.79

Problem: # protein stability index lookup, item "R10G"
Result: 4.65

Problem: # protein stability index lookup, item "Q17P"
Result: 4.2

Problem: # protein stability index lookup, item "R3D"
Result: 5.06

Problem: # protein stability index lookup, item "Q19C"
Result: 4.45

Problem: # protein stability index lookup, item "I14F"
Result: 3.5

Problem: # protein stability index lookup, item "L11I"
Result: 4.52

Problem: # protein stability index lookup, item "L2W"
Result: 3.79

Problem: # protein stability index lookup, item "Q20Y"
Result: 4.16

Problem: # protein stability index lookup, item "Q19L"
Result: 3.87

Problem: # protein stability index lookup, item "R12H"
Result: 4.14

Problem: # protein stability index lookup, item "L6S"
Result: 4.44

Problem: # protein stability index lookup, item "L11S"
Result: 4.68

Problem: # protein stability index lookup, item "D24V"
Result: 4.05

Problem: # protein stability index lookup, item "R22W"
Result: 3.72

Problem: # protein stability index lookup, item "R22S"
Result: 4.73

Problem: # protein stability index lookup, item "K8Y"
Result: 4.11

Problem: # protein stability index lookup, item "R3N"
Result: 4.37

Problem: # protein stability index lookup, item "I14E"
Result: 4.85

Problem: # protein stability index lookup, item "Q7V"
Result: 3.58

Problem: # protein stability index lookup, item "E5M"
Result: 3.05

Problem: # protein stability index lookup, item "E16A"
Result: 3.07
